Provide the reported IC50 of each item.
Test system: MG-63
Experiment: Cytotoxicity against human MG63 cells assessed as decrease in cell viability after 48 hrs by MTT assay
Format: functional, cell-based
Details: MG-63, 48 h

Example entries and their recorded answers appear below.
compound="CCCCCCCCC(Cl)CCCCCc1cc(O)c(CCCCCC(Cl)CCCCCC)c(O[C@@H]2OC[C@@H](O)[C@H](O)[C@H]2O)c1 (stereo partly drawn)" result="> 10 µM"
compound="CCCCCCC(Cl)CCCCCc1c(O)cc(CCCCCCC(Cl)CCCC)cc1O[C@@H]1OC[C@@H](O)[C@H](O)[C@H]1O (stereo partly drawn)" result="39 µM"
compound="CCCCCCCC(Cl)(Cl)CCCCCc1cc(O)c(CCCCCC(Cl)CCCCCC)c(O[C@@H]2OC[C@@H](O)[C@H](O)[C@H]2O)c1 (stereo partly drawn)" result="> 10 µM"

List IC50 for every entry below, keeping the order given.
1. CCCCCCCC(Cl)CCCCCc1cc(O)c(CCCCCC(Cl)CCCCCC)c(O[C@@H]2OC[C@@H](O)[C@H](O)[C@H]2O)c1 (stereo partly drawn)
2. CCCCCCC(Cl)CCCCCc1cc(O)c(CCCCCC(Cl)CCCCCC)c(O[C@@H]2OC[C@@H](O)[C@H](O)[C@H]2O)c1 (stereo partly drawn)
3. CCCCCCCCCC(Cl)CCCCCc1cc(O)c(CCCCCC(Cl)CCCCCC)c(O[C@@H]2OC[C@@H](O)[C@H](O)[C@H]2O)c1 (stereo partly drawn)

Found:
1. 22 µM
2. > 10 µM
3. > 10 µM

List IC50 for every entry below, keeping the order given.
1. CCCCCCCCCCCCCc1cc(O)c(CCCCCC(Cl)CCCCCC)c(O[C@@H]2OC[C@@H](O)[C@H](O)[C@H]2O)c1 (stereo partly drawn)
2. CCCCCCCCCCCc1cc(O)c(CCCCCC(Cl)CCCCCC)c(O[C@@H]2OC[C@@H](O)[C@H](O)[C@H]2O)c1 (stereo partly drawn)

Found:
> 10 µM
> 10 µM
